assay: Electrometric titration; assay type: physicochemical; details: 66% aqueous dmf; only or first pKa; read-out: pKa
Where a name gives a salt, the structure may show the parent alone.
Each entry below lists one item and its recorded pKa value.
QUANTITY_KIND: pKa

> print(dat)
                                   compound  experimental.value
1  NC1C(=O)N2C(C(=O)OCc3ccc([N+](=O)[O-])cc3)=C(O)CS[C@H]12 (stereo partly drawn) [Example 5, hydrochloride]                   4
2  O=CO[C@@H](C(=O)NC1C(=O)N2C(C(=O)O)=C(Cl)CSC12)c1ccccc1 (stereo partly drawn)                 4.5
3  CC(=O)NC1C(=O)N2C(C(=O)OCc3ccc([N+](=O)[O-])cc3)=C(O)CS[C@H]12 (stereo partly drawn)                 5.9
4  O=C(Cc1cccs1)NC1C(=O)N2C(C(=O)OCc3ccc([N+](=O)[O-])cc3)=C(O)CS[C@H]12 (stereo partly drawn)                 5.9
5  COC(=O)C1=C(O)CS[C@@H]2C(NC(=O)COc3ccccc3)C(=O)N12 (stereo partly drawn)                 5.6
6  O=C(Cc1cccs1)NC1C(=O)N2C(C(=O)O)=C(Br)CS[C@H]12 (stereo partly drawn)                 4.4

---

assay: Electrometric titration; assay type: physicochemical; conditions: 60% aqueous dmf, 60% aq. DMF; second group; read-out: titratable groups
Counter-ions that a name gives are not always drawn.
QUANTITY_KIND: pKa

> print(dat)
                                   compound  experimental.value
1  NC1C(=O)N2C(C(=O)OC(c3ccccc3)c3ccccc3)=C(O)CS[C@H]12 (stereo partly shown) [hydrochloride]                 6.5

---

assay: Electrometric titration; type: physicochemical; settings: 66% aqueous dmf, 66% DMF; second pKa; read-out: pKa
Structures can show the parent of a compound that is named as a salt.
QUANTITY_KIND: pKa

> print(dat)
                                   compound  quantity.kind  experimental.value
1  NC1C(=O)N2C(C(=O)OCc3ccc([N+](=O)[O-])cc3)=C(O)CS[C@H]12 (stereo partly shown) [Example 5, hydrochloride]            pKa                 6.3
